Provenance of the data: patent US20250270445A1

# protocol: Absorption spectrum, emission spectrum and extinction coefficient in toluene solution
# Format: physicochemical
# experimental-setup: maximum absorption peak
measured-property: Molar extinction coefficient of the toluene solution

Below: 3 compounds and their reported Molar extinction coefficient of the toluene solution.
| compound | reported-measurement |
| --- | --- |
| Cc1cccc(C)c1N(c1ccccc1)c1cc(N(c2ccccc2)c2c(C)cccc2C)c2ccc3c(N(c4ccccc4)c4c(C)cccc4C)cc(N(c4ccccc4)c4c(C)cccc4C)c4ccc1c2c43 | 6.0 × 10^4 L · mo 1^−1 |
| Cc1cccc(C)c1N(c1ccc(C(C)(C)C)cc1)c1cc(N(c2ccc(C(C)(C)C)cc2)c2c(C)cccc2C)c2ccc3c(N(c4ccc(C(C)(C)C)cc4)c4c(C)cccc4C)cc(N(c4ccc(C(C)(C)C)cc4)c4c(C)cccc4C)c4ccc1c2c43 | 3.0 × 10^4 L · mo 1^−1 |
| CC(C)(C)c1ccc2c(c1)c1cc(C(C)(C)C)cc3c1n2-c1cccc2c1B3c1cc3c4ccccc4c4ccccc4c3c3c4c5c6ccccc6c6ccccc6c5ccc4n-2c13 [E2] | 4.8 × 10^4 L · mo 1^−1 |

Task item: // returns reported Molar extinction coefficient of the toluene solution for input CC1CCC(C(C)C)C(Oc2ccc(-c3cc(C(C)C)ccc3N(c3cc(F)c(F)c(F)c3)c3cc(N(c4cc(F)c(F)c(F)c4)c4ccc(C(C)C)cc4-c4ccc(OC5CC(C)CCC5C(C)C)cc4)c4ccc5c(N(c6cc(F)c(F)c(F)c6)c6ccc(C(C)C)cc6-c6ccc(OC7CC(C)CCC7C(C)C)cc6)cc(N(c6cc(F)c(F)c(F)c6)c6ccc(C(C)C)cc6-c6ccc(OC7CC(C)CCC7C(C)C)cc6)c6ccc3c4c65)cc2)C1 (stereo not shown)
Reply: 6.8 × 10^4 L · mo 1^−1

---

# protocol: Solubility of compounds in toluene
# Type: physicochemical
measured-property: Solubilities(/100 g, toluene)

Recorded Solubilities(/100 g, toluene), per entry:
| compound | Solubilities(/100 g, toluene) |
| --- | --- |
| Cc1cccc(C)c1N(c1ccc(C(F)(F)F)cc1)c1cc(N(c2ccc(C(F)(F)F)cc2)c2c(C)cccc2C)c2ccc3c(N(c4ccc(C(F)(F)F)cc4)c4c(C)cccc4C)cc(N(c4ccc(C(F)(F)F)cc4)c4c(C)cccc4C)c4ccc1c2c43 [compound 12] | >4 g/100 g toluene |
| CCCCCCCCc1ccc(-c2c(N(c3cc(F)c(F)c(F)c3)c3cc(N(c4cc(F)c(F)c(F)c4)c4ccc5ccccc5c4-c4ccc(CCCCCCCC)cc4)c4ccc5c(N(c6cc(F)c(F)c(F)c6)c6ccc7ccccc7c6-c6ccc(CCCCCCCC)cc6)cc(N(c6cc(F)c(F)c(F)c6)c6ccc7ccccc7c6-c6ccc(CCCCCCCC)cc6)c6ccc3c4c65)ccc3ccccc23)cc1 [compound 17] | >4 g/100 g toluene |
| CC(C)c1ccc(N(c2cc(F)c(F)c(F)c2)c2cc(N(c3cc(F)c(F)c(F)c3)c3ccc(C(C)C)cc3/C=C/c3ccc(C(C)(C)C)cc3)c3ccc4c(N(c5cc(F)c(F)c(F)c5)c5ccc(C(C)C)cc5/C=C/c5ccc(C(C)(C)C)cc5)cc(N(c5cc(F)c(F)c(F)c5)c5ccc(C(C)C)cc5/C=C/c5ccc(C(C)(C)C)cc5)c5ccc2c3c54)c(/C=C/c2ccc(C(C)(C)C)cc2)c1 [compound 19] | >5 g/100 g toluene |
| CC(C)(C)c1ccc2c(c1)c1cc(C(C)(C)C)cc3c1n2-c1cccc2c1B3c1cc3c4ccccc4c4ccccc4c3c3c4c5c6ccccc6c6ccccc6c5ccc4n-2c13 [E2] | >0.7 g/100 g toluene |
| CC(C)c1cccc(C(C)C)c1N(c1ccc(C(C)(C)C)cc1)c1cc(N(c2ccc(C(C)(C)C)cc2)c2c(C(C)C)cccc2C(C)C)c2ccc3c(N(c4ccc(C(C)(C)C)cc4)c4c(C(C)C)cccc4C(C)C)cc(N(c4ccc(C(C)(C)C)cc4)c4c(C(C)C)cccc4C(C)C)c4ccc1c2c43 [compound 6] | >20 g/100 g toluene |

Task item: Quick check: Solubilities(/100 g, toluene) of CCCCCCCCc1ccc(-c2cc(OC)ccc2N(c2cc(F)c(F)c(F)c2)c2cc(N(c3cc(F)c(F)c(F)c3)c3ccc(OC)cc3-c3ccc(CCCCCCCC)cc3)c3ccc4c(N(c5cc(F)c(F)c(F)c5)c5ccc(OC)cc5-c5ccc(CCCCCCCC)cc5)cc(N(c5cc(F)c(F)c(F)c5)c5ccc(OC)cc5-c5ccc(CCCCCCCC)cc5)c5ccc2c3c54)cc1 [compound 16] ?
Reply: >10 g/100 g toluene

Task item: Lookup Cc1cc2ccccc2c(C)c1N(c1ccc(C(C)(C)C)cc1)c1cc(N(c2ccc(C(C)(C)C)cc2)c2c(C)cc3ccccc3c2C)c2ccc3c(N(c4ccc(C(C)(C)C)cc4)c4c(C)cc5ccccc5c4C)cc(N(c4ccc(C(C)(C)C)cc4)c4c(C)cc5ccccc5c4C)c4ccc1c2c43 [compound 11]
Reply: >2 g/100 g toluene

Task item: Same lookup for CCCCCCCCc1ccc(-c2cc(C(C)C)ccc2N(c2cc(F)c(F)c(F)c2)c2cc(N(c3cc(F)c(F)c(F)c3)c3ccc(C(C)C)cc3-c3ccc(CCCCCCCC)cc3)c3ccc4c(N(c5cc(F)c(F)c(F)c5)c5ccc(C(C)C)cc5-c5ccc(CCCCCCCC)cc5)cc(N(c5cc(F)c(F)c(F)c5)c5ccc(C(C)C)cc5-c5ccc(CCCCCCCC)cc5)c5ccc2c3c54)cc1 [compound 13] , please.
Reply: >15 g/100 g toluene

Task item: Now this one: CC(C)(C)c1ccc2c(c1)c1cc(C(C)(C)C)cc3c1n2-c1cc(-c2c(-c4ccccc4)cc(-c4ccccc4)cc2-c2ccccc2)cc2c1B3c1cc3c4ccccc4c4ccccc4c3c3c4c5c6ccccc6c6ccccc6c5ccc4n-2c13 [E3]
Reply: >0.7 g/100 g toluene

Task item: Now the same for Cc1cccc(C)c1N(c1cc(C(C)(C)C)cc(C(C)(C)C)c1)c1cc(N(c2cc(C(C)(C)C)cc(C(C)(C)C)c2)c2c(C)cccc2C)c2ccc3c(N(c4cc(C(C)(C)C)cc(C(C)(C)C)c4)c4c(C)cccc4C)cc(N(c4cc(C(C)(C)C)cc(C(C)(C)C)c4)c4c(C)cccc4C)c4ccc1c2c43 [compound 5]
Reply: 4.6 g/100 g toluene

Task item: Param item: CCc1cccc(CC)c1N(c1cc(C(C)(C)C)cc(C(C)(C)C)c1)c1cc(N(c2cc(C(C)(C)C)cc(C(C)(C)C)c2)c2c(CC)cccc2CC)c2ccc3c(N(c4cc(C(C)(C)C)cc(C(C)(C)C)c4)c4c(CC)cccc4CC)cc(N(c4cc(C(C)(C)C)cc(C(C)(C)C)c4)c4c(CC)cccc4CC)c4ccc1c2c43 [compound 8]
Reply: 30.1 g/100 g toluene

Task item: For CCCCCCCCc1ccc(-c2cc(N(c3ccc(C(C)(C)C)cc3)c3ccc(C(C)(C)C)cc3)ccc2N(c2cc(F)c(F)c(F)c2)c2cc(N(c3cc(F)c(F)c(F)c3)c3ccc(N(c4ccc(C(C)(C)C)cc4)c4ccc(C(C)(C)C)cc4)cc3-c3ccc(CCCCCCCC)cc3)c3ccc4c(N(c5cc(F)c(F)c(F)c5)c5ccc(N(c6ccc(C(C)(C)C)cc6)c6ccc(C(C)(C)C)cc6)cc5-c5ccc(CCCCCCCC)cc5)cc(N(c5cc(F)c(F)c(F)c5)c5ccc(N(c6ccc(C(C)(C)C)cc6)c6ccc(C(C)(C)C)cc6)cc5-c5ccc(CCCCCCCC)cc5)c5ccc2c3c54)cc1 [compound 18] then?
Reply: >10 g/100 g toluene

---

# protocol: Absorption spectrum, emission spectrum and extinction coefficient in toluene solution
# Assay type: physicochemical
The following compounds are listed with their measured Emission peak of the toluene solution values.
Kindly provide the numeric value in nm only, without the unit symbol.

| compound | Emission peak of the toluene solution (nm) |
| --- | --- |
| CCc1cccc(CC)c1N(c1cc(C(C)(C)C)cc(C(C)(C)C)c1)c1cc(N(c2cc(C(C)(C)C)cc(C(C)(C)C)c2)c2c(CC)cccc2CC)c2ccc3c(N(c4cc(C(C)(C)C)cc(C(C)(C)C)c4)c4c(CC)cccc4CC)cc(N(c4cc(C(C)(C)C)cc(C(C)(C)C)c4)c4c(CC)cccc4CC)c4ccc1c2c43 | 501 |
| CCCCCCCCc1ccc(-c2cc(OC)ccc2N(c2cc(F)c(F)c(F)c2)c2cc(N(c3cc(F)c(F)c(F)c3)c3ccc(OC)cc3-c3ccc(CCCCCCCC)cc3)c3ccc4c(N(c5cc(F)c(F)c(F)c5)c5ccc(OC)cc5-c5ccc(CCCCCCCC)cc5)cc(N(c5cc(F)c(F)c(F)c5)c5ccc(OC)cc5-c5ccc(CCCCCCCC)cc5)c5ccc2c3c54)cc1 | 496 |
| CC(C)c1ccc(-c2cc(-c3cc(C(C)(C)C)cc(C(C)(C)C)c3)ccc2N(c2cc(F)c(F)c(F)c2)c2cc(N(c3cc(F)c(F)c(F)c3)c3ccc(-c4cc(C(C)(C)C)cc(C(C)(C)C)c4)cc3-c3ccc(C(C)C)cc3)c3ccc4c(N(c5cc(F)c(F)c(F)c5)c5ccc(-c6cc(C(C)(C)C)cc(C(C)(C)C)c6)cc5-c5ccc(C(C)C)cc5)cc(N(c5cc(F)c(F)c(F)c5)c5ccc(-c6cc(C(C)(C)C)cc(C(C)(C)C)c6)cc5-c5ccc(C(C)C)cc5)c5ccc2c3c54)cc1 | 494 |
| CCCCCCCCc1ccc(-c2cc(N(c3ccc(C(C)(C)C)cc3)c3ccc(C(C)(C)C)cc3)ccc2N(c2cc(F)c(F)c(F)c2)c2cc(N(c3cc(F)c(F)c(F)c3)c3ccc(N(c4ccc(C(C)(C)C)cc4)c4ccc(C(C)(C)C)cc4)cc3-c3ccc(CCCCCCCC)cc3)c3ccc4c(N(c5cc(F)c(F)c(F)c5)c5ccc(N(c6ccc(C(C)(C)C)cc6)c6ccc(C(C)(C)C)cc6)cc5-c5ccc(CCCCCCCC)cc5)cc(N(c5cc(F)c(F)c(F)c5)c5ccc(N(c6ccc(C(C)(C)C)cc6)c6ccc(C(C)(C)C)cc6)cc5-c5ccc(CCCCCCCC)cc5)c5ccc2c3c54)cc1 | 520 |
| CCc1cccc(CC)c1N(c1ccc(C(C)(C)C)cc1)c1cc(N(c2ccc(C(C)(C)C)cc2)c2c(CC)cccc2CC)c2ccc3c(N(c4ccc(C(C)(C)C)cc4)c4c(CC)cccc4CC)cc(N(c4ccc(C(C)(C)C)cc4)c4c(CC)cccc4CC)c4ccc1c2c43 | 500 |

Task item: Give the measured Emission peak of the toluene solution of CC(C)(C)c1ccc2c(c1)c1cc(C(C)(C)C)cc3c1n2-c1cc(-c2c(-c4ccccc4)cc(-c4ccccc4)cc2-c2ccccc2)cc2c1B3c1cc3c4ccccc4c4ccccc4c3c3c4c5c6ccccc6c6ccccc6c5ccc4n-2c13 .
Reply: 530

Task item: Follow-up entry: CC(C)(C)c1ccc2c(c1)c1cc(C(C)(C)C)cc3c1n2-c1cccc2c1B3c1cc3c4ccccc4c4ccccc4c3c3c4c5c6ccccc6c6ccccc6c5ccc4n-2c13 [E2]
Reply: 523

Task item: Okay, and CC1CCC(C(C)C)C(Oc2ccc(-c3cc(C(C)C)ccc3N(c3cc(F)c(F)c(F)c3)c3cc(N(c4cc(F)c(F)c(F)c4)c4ccc(C(C)C)cc4-c4ccc(OC5CC(C)CCC5C(C)C)cc4)c4ccc5c(N(c6cc(F)c(F)c(F)c6)c6ccc(C(C)C)cc6-c6ccc(OC7CC(C)CCC7C(C)C)cc6)cc(N(c6cc(F)c(F)c(F)c6)c6ccc(C(C)C)cc6-c6ccc(OC7CC(C)CCC7C(C)C)cc6)c6ccc3c4c65)cc2)C1 (stereo not shown) ?
Reply: 493

Task item: And then CCCCCCCCc1ccc(N(c2ccc(C(C)C)cc2-c2cc(F)c(F)c(F)c2)c2cc(N(c3ccc(CCCCCCCC)cc3)c3ccc(C(C)C)cc3-c3cc(F)c(F)c(F)c3)c3ccc4c(N(c5ccc(CCCCCCCC)cc5)c5ccc(C(C)C)cc5-c5cc(F)c(F)c(F)c5)cc(N(c5ccc(CCCCCCCC)cc5)c5ccc(C(C)C)cc5-c5cc(F)c(F)c(F)c5)c5ccc2c3c54)cc1 , what is it?
Reply: 504

Task item: // query: CCCCCCCCc1ccc(-c2c(N(c3cc(F)c(F)c(F)c3)c3cc(N(c4cc(F)c(F)c(F)c4)c4ccc5ccccc5c4-c4ccc(CCCCCCCC)cc4)c4ccc5c(N(c6cc(F)c(F)c(F)c6)c6ccc7ccccc7c6-c6ccc(CCCCCCCC)cc6)cc(N(c6cc(F)c(F)c(F)c6)c6ccc7ccccc7c6-c6ccc(CCCCCCCC)cc6)c6ccc3c4c65)ccc3ccccc23)cc1
Reply: 494
